- Species on record: Homo sapiens
- test-protocol: Selectivity ratio of IC50 for inhibition of human 20S proteasome beta5 subunit to IC50 for inhibition of human 20S immunoproteasome beta-5i subunit
Ratio IC50 listing for selected compounds.
Would you mind answering with just the numeric figure?

-- ask Provide only the value of recorded Ratio IC50 for O=C(Cn1cccn1)N[C@@H](Cc1coc2ccccc12)B(O)O
-- reply 212

====

IC50 listing for selected molecules.
- measured-target: Proteasome subunit beta type-7 (Homo sapiens)
- Sequence (Q99436 whole entry): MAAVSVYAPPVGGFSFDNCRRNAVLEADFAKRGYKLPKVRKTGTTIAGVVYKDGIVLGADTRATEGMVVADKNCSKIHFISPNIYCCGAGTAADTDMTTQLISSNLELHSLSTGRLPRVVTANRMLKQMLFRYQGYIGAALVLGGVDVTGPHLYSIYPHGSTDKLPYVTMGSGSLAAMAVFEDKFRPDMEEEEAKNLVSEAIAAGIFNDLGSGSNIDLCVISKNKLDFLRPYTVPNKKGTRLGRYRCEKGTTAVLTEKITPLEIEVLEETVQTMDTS
- test-protocol: Inhibition of human 20S proteasome beta2 subunit using Ac-RLR-AMC as substrate preincubated for 2 hrs followed by substrate addition and measured after 1 hr by fluorescence intensity assay

>  <line-notation>
CC(C)C[C@H](NC(=O)CNC(=O)c1cc(Cl)ccc1Cl)B(O)O

>  <IC50>
> 30 µM

$$$$
>  <line-notation>
O=C(N[C@@H](Cc1coc2ccccc12)B(O)O)[C@@H]1C[C@H]2CC[C@@H]1O2

>  <IC50>
> 30 µM

$$$$

Here's the next entry for you.
-- ask Provide only the value of recorded IC50 for CCc1cccc(C[C@H](NC(=O)[C@H](Cc2ccccc2)NC(=O)c2cnccn2)B(O)O)c1
-- reply > 30 µM
